# PROTOCOL_NOTES: Hemolytic activity in human red blood cells at 400 ug/ml incubated for 45 mins by spectrophotometric analysis relative to control
# Type: toxicity, cell-based, Erythrocyte
# CONDITION: red blood cells (erythrocytes), at 400 µg/mL, read-out: Activity
ATTRIBUTE_MEASURED: hemolysis at 0.75 h, 400 ug/ml (%)

>>> reported_measurement("CC[C@H](C)[C@@H](NC(=O)[C@@H](NC(=O)[C@H](CCC(=O)O)NC(=O)[C@H](Cc1ccccc1)NC(=O)[C@@H](CCN)NC(=O)[C@H](CCN)NC(=O)[C@H](CO)NC(=O)[C@@H](Cc1c[nH]c2ccccc12)NC(=O)[C@@H](CO)NC(=O)CNC(=O)[C@@H](CN)NC(=O)[C@H](NC(=O)[C@H](C)N)C(C)C)C(C)C)C(=O)N[C@@H](C)C(=O)O")
0
>>> reported_measurement("CC[C@H](C)[C@@H](NC(=O)[C@@H](NC(=O)[C@H](CCC(=O)O)NC(=O)[C@H](Cc1ccccc1)NC(=O)[C@@H](CCN)NC(=O)[C@H](CCN)NC(=O)[C@H](CO)NC(=O)[C@@H](Cc1c[nH]c2ccccc12)NC(=O)[C@@H](CCN)NC(=O)CNC(=O)[C@@H](CCN)NC(=O)[C@H](N)C(C)C)C(C)C)C(=O)N[C@@H](C)C(=O)O")
0
>>> reported_measurement("CC(C)[C@H](NC(=O)[C@H](CCC(=O)O)NC(=O)[C@H](Cc1ccccc1)NC(=O)[C@@H](CCN)NC(=O)[C@H](CCN)NC(=O)[C@H](CO)NC(=O)[C@@H](Cc1c[nH]c2ccccc12)NC(=O)[C@@H](CO)NC(=O)CNC(=O)[C@@H](CCN)NC(=O)[C@H](N)C(C)C)C(=O)N[C@H](C)C(=O)N[C@@H](C)C(=O)O")
4.3
>>> reported_measurement("CC[C@H](C)[C@@H](NC(=O)[C@@H](NC(=O)[C@H](CCC(=O)O)NC(=O)[C@H](Cc1ccccc1)NC(=O)[C@@H](CCN)NC(=O)[C@H](CCN)NC(=O)[C@H](CO)NC(=O)[C@@H](Cc1c[nH]c2ccccc12)NC(=O)[C@@H](CO)NC(=O)CNC(=O)[C@@H](CCN)NC(=O)[C@H](NC(=O)C(F)(F)CN)C(C)C)C(C)C)C(=O)N[C@@H](C)C(=O)O")
0
>>> reported_measurement("CC[C@H](C)[C@@H](NC(=O)[C@@H](NC(=O)[C@H](CCC(=O)O)NC(=O)[C@H](Cc1ccccc1)NC(=O)[C@@H](CCN)NC(=O)[C@H](CCN)NC(=O)[C@H](CO)NC(=O)[C@@H](Cc1c[nH]c2ccccc12)NC(=O)[C@@H](CO)NC(=O)CNC(=O)[C@@H](CCN)NC(=O)[C@H](NC(=O)[C@H](C)N)C(C)C)C(C)(C)C)C(=O)N[C@@H](C)C(N)=O")
6
>>> reported_measurement("CC[C@H](C)[C@@H](NC(=O)[C@@H](NC(=O)[C@H](CCC(=O)O)NC(=O)[C@H](Cc1ccc(-c2ccccc2)cc1)NC(=O)[C@@H](CCN)NC(=O)[C@H](CCN)NC(=O)[C@H](CO)NC(=O)[C@@H](Cc1c[nH]c2ccccc12)NC(=O)[C@@H](CO)NC(=O)CNC(=O)[C@@H](CCN)NC(=O)[C@H](N)C(C)C)C(C)C)C(=O)N[C@@H](C)C(=O)O")
24.5
